Provide the reported binding signal of each item.
- Assay system: Ems (Drosophila melanogaster, UniProt P18488 373-462)
- Sequence: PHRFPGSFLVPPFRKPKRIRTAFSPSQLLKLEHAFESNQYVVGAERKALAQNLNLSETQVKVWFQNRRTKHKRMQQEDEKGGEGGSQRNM
- Protocol details: FP; 33 mM phosphate pH 7.0, 90 mM NaCl, 0.01% Tween 20, 0.1 mM DTT, 0.5% agarose; room temperature
- Condition label: tags: N-GST (pGEX-6P-1, kept); dsDNA, one strand shown

-- ask Which measured binding signal value corresponds to CACGTAATTAGCACA ?
-- reply 5.4 Kd / Kd of best base at the position

-- ask Same for CACGTAATTATCTCA
-- reply 1.9 Kd / Kd of best base at the position

* * *

- Assay system: Eip93f (Drosophila melanogaster, UniProt Q9VD60 752-830)
- Sequence: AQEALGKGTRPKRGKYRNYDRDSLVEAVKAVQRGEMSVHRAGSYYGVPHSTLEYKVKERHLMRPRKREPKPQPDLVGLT
- Protocol details: FP; 33 mM phosphate pH 7.0, 90 mM NaCl, 0.01% Tween 20, 0.1 mM DTT, 0.5% agarose; room temperature
- Condition label: tags: N-GST (pGEX-6P-1, kept); dsDNA, one strand shown
Measured parameter: binding signal

-- ask What value of measured binding signal is listed for CATATCCGAAAATCG ?
-- reply 1.8 Kd / Kd of best base at the position

* * *

- Assay system: Gsc (Drosophila melanogaster, UniProt P54366 267-356)
- Sequence (P54366 267-356): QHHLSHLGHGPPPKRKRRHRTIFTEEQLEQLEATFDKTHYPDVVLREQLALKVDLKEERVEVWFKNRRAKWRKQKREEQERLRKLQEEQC
- Protocol details: FP; 33 mM phosphate pH 7.0, 90 mM NaCl, 0.01% Tween 20, 0.1 mM DTT, 0.5% agarose; room temperature
- Condition label: tags: N-GST (pGEX-6P-1, kept); dsDNA, one strand shown
Measured parameter: Kd

-- ask Any idea what its Kd is? The sequence is AATTAATCCGAT
-- reply ~3.8 nM

* * *

- Assay system: Kr (Drosophila melanogaster, UniProt P07247 220-332)
- Sequence (P07247 220-332): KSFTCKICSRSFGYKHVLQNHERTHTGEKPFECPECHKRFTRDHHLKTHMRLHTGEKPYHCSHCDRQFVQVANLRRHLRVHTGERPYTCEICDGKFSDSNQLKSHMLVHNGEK
- Protocol details: FP; 20 mM Tris-acetate pH 7.0, 50 "nM" NaCl as printed (probably mM), 0.01% Tween 20, 0.1 mM DTT; conventional titration
- Condition label: tags: N-GST (pGEX-6P-1, kept); dsDNA, one strand shown
Measured parameter: binding signal

-- ask Quick one: binding signal of TTGATGGATTA ?
-- reply 4.9 Kd / Kd of best base at the position

* * *

- Assay system: Oc (Drosophila melanogaster, UniProt P22810 52-141)
- Sequence (P22810 52-141): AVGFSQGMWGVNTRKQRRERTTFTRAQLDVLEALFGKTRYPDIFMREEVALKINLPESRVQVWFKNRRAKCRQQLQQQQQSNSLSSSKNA
- Protocol details: FP; 33 mM phosphate pH 7.0, 90 mM NaCl, 0.01% Tween 20, 0.1 mM DTT, 0.5% agarose; room temperature
- Condition label: tags: N-GST (pGEX-6P-1, kept); dsDNA, one strand shown
Measured parameter: binding signal

-- ask What value of binding signal has been recorded for this entry: AGTTACTCCCCT
-- reply 12 Kd / Kd of best base at the position

-- ask Next up: AGTGAATCCCCT
-- reply 176 Kd / Kd of best base at the position

-- ask Query AGTTAATCGCCT next
-- reply 6.1 Kd / Kd of best base at the position

-- ask Moving on to AGATAATCCCCT
-- reply 183 Kd / Kd of best base at the position

-- ask Try this sequence too: AGTTAAGCCCCT
-- reply 18 Kd / Kd of best base at the position

-- ask What do you get for AGTTAACCCCCT ?
-- reply 60 Kd / Kd of best base at the position

-- ask AGTTCATCCCCT , same question.
-- reply 177 Kd / Kd of best base at the position

-- ask Similarly, AGTTAGTCCCCT ?
-- reply 6.2 Kd / Kd of best base at the position

-- ask Here is the next sequence: AGTTAATGCCCT
-- reply 140 Kd / Kd of best base at the position

-- ask Now consider AGGTAATCCCCT and answer again.
-- reply 3.1 Kd / Kd of best base at the position

-- ask And AGTCAATCCCCT ?
-- reply 340 Kd / Kd of best base at the position
